test system: GDM-1; assay: Induction of apoptosis in human GDM-1 cells incubated for 48 hrs by Annexin V staining assay; format: functional, cell-based; details: GDM-1, 48 h
Recorded metric: EC50 (µM)
Supply the numeric figure in µM, leaving out any unit text.

q: Indicate its recorded EC50; the compound in question is COc1ccc(S(=O)(=O)Nc2cc(-c3c(O)ccc4ccccc34)c(O)c3ccccc23)cc1 [C-188-9]
a: 6

* * *

test system: MDA-MB-231; experiment: Antiproliferative activity against human MDA-MB-231 cells assessed as inhibition of cell growth incubated for 24 hrs by MTT dye based ELISA assay; assay type: functional; conditions: MDA-MB-231, 24 h
Recorded metric: pIC50
Formally, pIC50 is defined as -log10 of the concentration c, with c in mol/L.

q: Please tell me the measured pIC50 for CC(C)=CC[C@@H](OC(=O)CSc1nnc(Cc2ccc(Br)cc2)s1)C1=CC(=O)c2ccccc2C1=O ; system: MDA-MB-231.
a: 5.74

* * *

target: Signal transducer and activator of transcription 3 (Homo sapiens); assay: Inhibition of recombinant STAT3 (unknown origin) expressed in baculovirus in Sf9 insect cells assessed as reduction in DNA binding activity with NIH3T3 nuclear extract incubated for 30 mins by electrophoretic mobility shift assay; type: cell-based; conditions: sf9
Sequence (P40763 whole entry): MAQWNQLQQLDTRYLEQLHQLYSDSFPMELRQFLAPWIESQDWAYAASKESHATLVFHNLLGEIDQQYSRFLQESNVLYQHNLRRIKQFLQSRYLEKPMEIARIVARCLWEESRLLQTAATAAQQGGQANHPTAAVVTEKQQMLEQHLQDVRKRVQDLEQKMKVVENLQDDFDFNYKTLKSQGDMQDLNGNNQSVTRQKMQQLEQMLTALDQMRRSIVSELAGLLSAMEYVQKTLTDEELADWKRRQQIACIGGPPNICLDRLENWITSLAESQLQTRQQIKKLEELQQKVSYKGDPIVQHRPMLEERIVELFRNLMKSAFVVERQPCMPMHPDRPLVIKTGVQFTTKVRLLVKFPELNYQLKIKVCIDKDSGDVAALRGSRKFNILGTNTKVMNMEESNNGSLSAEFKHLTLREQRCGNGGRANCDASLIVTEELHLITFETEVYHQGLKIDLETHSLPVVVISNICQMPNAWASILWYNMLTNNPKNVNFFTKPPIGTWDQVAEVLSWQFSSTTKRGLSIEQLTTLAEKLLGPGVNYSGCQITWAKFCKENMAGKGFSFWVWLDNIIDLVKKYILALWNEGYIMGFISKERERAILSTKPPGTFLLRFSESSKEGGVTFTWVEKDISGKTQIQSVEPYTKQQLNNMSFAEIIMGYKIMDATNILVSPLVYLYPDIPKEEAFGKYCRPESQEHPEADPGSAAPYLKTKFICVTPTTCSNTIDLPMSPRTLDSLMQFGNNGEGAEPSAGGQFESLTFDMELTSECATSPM
Square brackets hold non-standard residues; d marks the D form. Peptide text beside a SMILES is read from it. pY = N[C@@H](Cc1ccc(OP(=O)(O)O)cc1)C(=O)O
Recorded metric: pIC50
Formally, pIC50 is defined as -log10 of the concentration c, with c in mol/L.

q: Please tell me the measured pIC50 for CC(C)C[C@H](NC(=O)[C@H](Cc1ccc(OP(=O)(O)O)cc1)NC(=O)[C@@H]1CCCN1)C(=O)O (H-Pro-[pY]-Leu-OH) ; system: Signal transducer and activator of transcription 3 (Homo sapiens).
a: 3.74

* * *

target: Signal transducer and activator of transcription 3 (Homo sapiens); test: Inhibition of STAT3 (unknown origin) expressed in mouse NIH3T3 cells assessed as reduction in DNA binding activity incubated for 20 mins in presence of [gamma-32P]ATP by electrophoretic mobility shift assay; format: cell-based
Recorded metric: IC50 (µM)
Supply the numeric figure in µM, leaving out any unit text.

q: Indicate its recorded IC50; the molecule in question is O=[N+]([O-])c1ccc2c(c1)S(=O)(=O)C=C2
a: 10
